Measurement notes: Antiproliferative activity against human OCI-Ly2 cells measured after 72 hrs by calcein AM dye-based fluorescence assay
Assay type: functional
This listing pairs compounds with measured GI50.
Unit nM implied. Number only.

Here are 4 compounds together with their reported answers.
[
  {
    "Compound": "CC(C)c1n[nH]c2c(NCc3ccc(-c4ccccn4)cc3)nc(SCCN)nc12",
    "Units text": "nM",
    "GI50": 28
  },
  {
    "Compound": "CSc1nc(NCc2ccc(-c3ccccn3)cc2)c2[nH]nc(C(C)C)c2n1",
    "Units text": "nM",
    "GI50": 1210
  },
  {
    "Compound": "CSCCSc1nc(NCc2ccc(-c3ccccn3)cc2)c2[nH]nc(C(C)C)c2n1",
    "Units text": "nM",
    "GI50": 668
  },
  {
    "Compound": "CC(C)c1n[nH]c2c(NCc3ccc(-c4ccccn4)cc3)nc(SCCNC(N)=O)nc12",
    "Units text": "nM",
    "GI50": 198
  }
]

Next item in the queue.
Which GI50 is reported for this compound? CC(C)c1n[nH]c2c(NCc3ccc(-c4ccccn4)cc3)nc(SCC(N)CN)nc12 (stereo not given)
780
